# Read-out: Cytochrome P450 2C9 (Homo sapiens) (UniProt P11712)
# measurement_description: CLD_CYP2C9_24hr: CellzDirect (CLD) Gene Expression Assay for xenobiotic metabolism (CYP2C9) at 24 hours (AID 2283688)
Results filed as inconclusive are left out. Activity calls are given as the source filed them. The calls were made as follows: active = hit-call score of the fitted dose curve at least 0.9, where 1 is the maximum; inconclusive = response in the unintended direction; inactive = score below 0.9.
measurement_type: outcome

[[record]]
record_smiles = "COc1cc(OC)nc(NC(=O)NS(=O)(=O)c2ncccc2OCC(F)(F)F)n1"
measurement_type = "outcome"
reading = "inactive"

[[record]]
record_smiles = "Nc1c(Cl)c(Cl)nc(C(=O)O)c1Cl"
measurement_type = "outcome"
reading = "inactive"

[[record]]
record_smiles = "COC(=O)c1c(C(F)F)nc(C(F)(F)F)c(C2=NCCS2)c1CC(C)C"
measurement_type = "outcome"
reading = "inactive"


----------
# Tested on: rabbit Platelet Activating Factor Receptor (PAF), gene 100354046
# measurement_description: NVS_GPCR_rabPAF: NovaScreen (NVS) G Protein-Coupled Receptor Assay for rabbit Platelet Activating Factor Receptor (PAF) (AID 2283287)
Inconclusive results are not listed. Activity calls are given as the source filed them. The calls were made as follows: active = hit-call score of the fitted dose curve at least 0.9, where 1 is the maximum; inconclusive = response in the unintended direction; inactive = score below 0.9.
Outcome (select one): active, inactive

[[record]]
molecule = "CS(=O)(=O)c1cc(C(F)(F)F)ccc1C(=O)c1cnoc1C1CC1"
assigned_category = "active"

[[record]]
molecule = "CC(C)N1C(=O)N(c2ccccc2)CSC1=NC(C)(C)C"
assigned_category = "inactive"

[[record]]
molecule = "COCC(=O)N(c1c(C)cccc1C)C(C)C(=O)OC (stereo unspecified)"
assigned_category = "inactive"

[[record]]
molecule = "COP(=S)(OC)SCn1nnc2ccccc2c1=O"
assigned_category = "active"

[[record]]
molecule = "CCCC(=NOCC)C1=C(O)CC(CC(C)SCC)CC1=O (stereo unspecified)"
assigned_category = "inactive"


Fill in: this test's call for O=c1n(Cl)c(=O)n(Cl)c(=O)n1Cl is ___
inactive

----------
# Read-out: urokinase plasminogen activator (uPA), PLAU (gene 5328)
# measurement_description: BSK_KF3CT_uPA: BioMAP Diversity Plus: KF3CT Assay for urokinase plasminogen activator (uPA) Biomarker Activity (AID 2283075)
# condition_info: primary human keratinocytes with fibroblasts; actives raise or lower the signal
Calls of active or inactive are those of the source. The calls were made as follows: active = hit-call score of the fitted dose curve at least 0.9, where 1 is the maximum; inactive = score below 0.9.
Outcome (select one): 1.0 = active, 0.0 = inactive

Field: example entries. Status: answers known.
[[record]]
compound = "COC(=O)NS(=O)(=O)c1ccc(N)cc1"
assigned_category = 0.0

[[record]]
compound = "OC(c1ccc(Cl)cc1)(c1ccc(Cl)cc1)C(Cl)(Cl)Cl"
assigned_category = 1.0

[[record]]
compound = "Nc1cnn(-c2ccccc2)c(=O)c1Cl"
assigned_category = 0.0

[[record]]
compound = "CC(C)(C)C(=O)C(Oc1ccc(Cl)cc1)n1cncn1 (stereo unspecified)"
assigned_category = 0.0

[[record]]
compound = "COC(=O)NC(=S)Nc1ccccc1NC(=S)NC(=O)OC"
assigned_category = 0.0


Please turn your attention to the following entry.
Fill in: this test's call for CC1(C)CCC(=Cc2ccc(Cl)cc2)C1(O)Cn1cncn1 (stereo unspecified) is ___
0.0

----------
# measurement_description: LTEA_HepaRG_LDH_cytotoxicity: Cytotoxicity Assessment in the Life Technologies and Expression Analysis (LTEA) Assay (AID 2283563)
Active and inactive are the calls of the source. The calls were made as follows: active = hit-call score of the fitted dose curve at least 0.9, where 1 is the maximum; inconclusive = response in the unintended direction; inactive = score below 0.9.
Outcome (select one): t for active, f for inactive

Field: example entries. Status: answers known.
[[record]]
molecule = "CCC(C)n1c(=O)[nH]c(C)c(Br)c1=O (stereo unspecified)"
assigned_category = "f"

[[record]]
molecule = "CCOC(=O)C(C)OC(=O)c1cc(Oc2ccc(C(F)(F)F)cc2Cl)ccc1[N+](=O)[O-] (stereo unspecified)"
assigned_category = "f"


Fill in: this test's call for CCCC(=NOCC)C1=C(O)CC(CC(C)SCC)CC1=O (stereo unspecified) is ___
f

Fill in: this test's call for CCOc1nc(C(Cl)(Cl)Cl)ns1 is ___
f

Fill in: this test's call for CCCCOCN(C(=O)CCl)c1c(CC)cccc1CC is ___
f

Fill in: this test's call for CCN(CC)c1nc(C)cc(OP(=S)(OC)OC)n1 is ___
f
